- measurementTarget: Reg1_301-599 (amino acids 301-599 of human Regnase-1) phosphorylation by IKKβ (Homo sapiens)
- Sequence (Q5D1E8 301-599): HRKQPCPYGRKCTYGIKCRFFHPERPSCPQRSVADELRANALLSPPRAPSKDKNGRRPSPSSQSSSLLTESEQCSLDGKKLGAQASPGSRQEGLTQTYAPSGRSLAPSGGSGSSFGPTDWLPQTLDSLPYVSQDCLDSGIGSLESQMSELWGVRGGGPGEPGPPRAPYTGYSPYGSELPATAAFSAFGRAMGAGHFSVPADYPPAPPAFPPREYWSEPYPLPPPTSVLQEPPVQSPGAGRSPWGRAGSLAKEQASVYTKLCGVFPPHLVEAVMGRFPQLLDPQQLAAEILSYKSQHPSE
Residues, ends and D or L forms follow the SMILES beside them.
propertyName: IC50

So for CC[C@H](C)[C@@H]1NC(=O)[C@H](Cc2c[nH]c3ccccc23)NC(=O)[C@@H](Cc2ccccc2)NC(=O)[C@H](CCCCN)NC(=O)[C@H](C)N(C)C(=O)C[C@@H](C(=O)N2CCCC2)NC(=O)[C@H](CCC(=O)O)NC(=O)[C@H](Cc2ccccc2)NC(=O)[C@H](CO)NC(=O)[C@H](Cc2c[nH]cn2)NC(=O)[C@H](Cc2c[nH]cn2)NC1=O [PP20] (HELM PEPTIDE1{[meA].K.[dF].W.I.H.H.S.F.E.D.[C1CCN([*:1])C1]}$PEPTIDE1,PEPTIDE1,1:R1-11:R3$$$V2.0) , the logged IC50 turned out to be > 62.1 µM

====

- measurementTarget: FL_Reg1 (Homo sapiens)
- Construct: made in house; host or cells: Expi293 cells
- assaySummary: Binding of Regnase-1 and peptide compounds (affinity mass analysis, SEC then LC/MS)
- measurementConditions: 1 μM FL_Reg1, final compound concentration 1 μM, 23° C. for one hour
Residues, ends and D or L forms follow the SMILES beside them.
What AS-MS ratio(%) was measured for each of the following?
A complete answer gives the number followed by the unit.

Illustrative cases are given below, each with its answer.
[
  {
    "compound": "CC(C)[C@@H]1NC(=O)[C@H](Cc2c[nH]c3ccccc23)NC(=O)[C@H](CCCCN)NC(=O)[C@H](Cc2c[nH]c3ccccc23)NC(=O)[C@H](CCC(N)=O)NC(=O)[C@H](CCCNC(=N)N)NC(=O)[C@H](Cc2ccccc2)NC(=O)[C@H](CCCNC(=N)N)NC(=O)[C@H](C)N(C)C(=O)C[C@@H](C(=O)N2CCCC2)NC(=O)[C@@H]2CCCN2C(=O)[C@H](Cc2ccc(O)cc2)NC1=O [PP13] (HELM PEPTIDE1{[meA].R.F.R.Q.W.K.W.V.Y.P.D.[C1CCN([*:1])C1]}$PEPTIDE1,PEPTIDE1,1:R1-12:R3$$$V2.0)",
    "AS-MS ratio(%)": "0.1%"
  },
  {
    "compound": "CC[C@H](C)[C@@H]1NC(=O)[C@H](CC(N)=O)NC(=O)[C@H]([C@@H](C)CC)NC(=O)[C@H](Cc2ccc(O)cc2)NC(=O)[C@H](Cc2c[nH]c3ccccc23)NC(=O)[C@H](CO)NC(=O)[C@H](CC(N)=O)NC(=O)[C@H](C)N(C)C(=O)C[C@@H](C(=O)N2CCCC2)NC(=O)[C@H](Cc2c[nH]cn2)NC(=O)CNC(=O)[C@H](Cc2c[nH]c3ccccc23)NC1=O [PP15] (HELM PEPTIDE1{[meA].N.S.W.Y.I.N.I.W.G.H.D.[C1CCN([*:1])C1]}$PEPTIDE1,PEPTIDE1,1:R1-12:R3$$$V2.0)",
    "AS-MS ratio(%)": "66.7%"
  },
  {
    "compound": "CC[C@H](C)[C@@H]1NC(=O)[C@H](CCCNC(=N)N)NC(=O)[C@H](Cc2ccc(O)cc2)NC(=O)[C@H](Cc2c[nH]c3ccccc23)NC(=O)[C@H](CO)NC(=O)[C@H](CC(N)=O)NC(=O)[C@H](C)N(C)C(=O)C[C@@H](C(=O)N2CCCC2)NC(=O)[C@H](CC(C)C)NC(=O)CNC(=O)[C@H](Cc2c[nH]c3ccccc23)NC1=O [PP22] (HELM PEPTIDE1{[meA].N.S.W.Y.R.I.W.G.L.D.[C1CCN([*:1])C1]}$PEPTIDE1,PEPTIDE1,1:R1-11:R3$$$V2.0)",
    "AS-MS ratio(%)": "14.5%"
  }
]

Provide the reported AS-MS ratio(%) of each entry below, same order.
1. CC[C@H](C)[C@@H]1NC(=O)[C@H](CC(N)=O)NC(=O)[C@H](Cc2ccc(O)cc2)NC(=O)[C@H](Cc2c[nH]c3ccccc23)NC(=O)[C@H](CO)NC(=O)[C@H](CC(N)=O)NC(=O)[C@H](CO)NC(=O)[C@H](Cc2ccccc2)NC(=O)[C@H](CC(N)=O)NC(=O)[C@H](C)N(C)C(=O)C[C@@H](C(=O)N2CCCC2)NC(=O)[C@H](Cc2c[nH]c3ccccc23)NC1=O [PP16] (HELM PEPTIDE1{[meA].N.F.S.N.S.W.Y.N.I.W.D.[C1CCN([*:1])C1]}$PEPTIDE1,PEPTIDE1,1:R1-12:R3$$$V2.0)
2. CC[C@H](C)[C@@H]1NC(=O)[C@H](CCCCN)NC(=O)[C@H](Cc2ccc(O)cc2)NC(=O)[C@H](Cc2c[nH]c3ccccc23)NC(=O)[C@H](CO)NC(=O)[C@H](CC(N)=O)NC(=O)[C@H](C)N(C)C(=O)C[C@@H](C(=O)N2CCCC2)NC(=O)[C@H](CC(C)C)NC(=O)CNC(=O)[C@H](Cc2c[nH]c3ccccc23)NC1=O [PP21] (HELM PEPTIDE1{[meA].N.S.W.Y.K.I.W.G.L.D.[C1CCN([*:1])C1]}$PEPTIDE1,PEPTIDE1,1:R1-11:R3$$$V2.0)

output:
17.9%
15.1%

====

- measurementTarget: ΔCTD_Reg1 (amino acids 1 to 546 of human Regnase-1) phosphorylation by IKKβ (Homo sapiens, UniProt Q5D1E8)
- Construct: made in house; host or cells: Expi293 cells
- assaySummary: Regnase-1 phosphorylation inhibition by compounds (AlphaScreen), IKKβ, CTD-deficient Regnase-1
- Type: biochemical
- measurementConditions: Table 11; 2 nM Regnase-1; AlphaScreen; read-out: 50% inhibition concentration, Regnase-1 phosphorylation, ΔCTD_Reg1, IKKβ
Residues, ends and D or L forms follow the SMILES beside them.
What IC50 was measured for each of the following?
A complete answer gives the number followed by the unit.

[
  {
    "compound": "CC[C@H](C)[C@@H]1NC(=O)[C@H](CC(N)=O)NC(=O)[C@H](Cc2ccc(O)cc2)NC(=O)[C@H](Cc2c[nH]c3ccccc23)NC(=O)[C@H](CO)NC(=O)[C@H](CC(N)=O)NC(=O)[C@H](C)NC(=O)[C@H](Cc2ccc(O)cc2)NC(=O)CNC(=O)[C@H](C)N(C)C(=O)C[C@@H](C(=O)N2CCCC2)NC(=O)[C@H](Cc2c[nH]c3ccccc23)NC1=O [PP2] (HELM PEPTIDE1{[meA].G.Y.A.N.S.W.Y.N.I.W.D.[C1CCN([*:1])C1]}$PEPTIDE1,PEPTIDE1,1:R1-12:R3$$$V2.0)",
    "propertyName": "IC50",
    "observedResult": "14 µM"
  }
]

So for CC[C@H](C)[C@@H]1NC(=O)[C@H](CC(N)=O)NC(=O)[C@H](Cc2ccc(O)cc2)NC(=O)[C@H](Cc2c[nH]c3ccccc23)NC(=O)[C@H](C)NC(=O)[C@H](CC(N)=O)NC(=O)[C@H](CO)NC(=O)[C@H](Cc2c[nH]cn2)NC(=O)[C@H](C)N(C)C(=O)C[C@@H](C(=O)N2CCCC2)NC(=O)[C@H](Cc2c[nH]c3ccccc23)NC1=O [PP5] (HELM PEPTIDE1{[meA].H.S.N.A.W.Y.N.I.W.D.[C1CCN([*:1])C1]}$PEPTIDE1,PEPTIDE1,1:R1-11:R3$$$V2.0) , the logged IC50 turned out to be 20.4 µM

====

- measurementTarget: binding between TBK1 and full-length Regnase-1 (FL_Reg1) (Homo sapiens, UniProt Q5D1E8)
- Construct: made in house; host or cells: Expi293 cells
- Sequence (Q5D1E8 1-599): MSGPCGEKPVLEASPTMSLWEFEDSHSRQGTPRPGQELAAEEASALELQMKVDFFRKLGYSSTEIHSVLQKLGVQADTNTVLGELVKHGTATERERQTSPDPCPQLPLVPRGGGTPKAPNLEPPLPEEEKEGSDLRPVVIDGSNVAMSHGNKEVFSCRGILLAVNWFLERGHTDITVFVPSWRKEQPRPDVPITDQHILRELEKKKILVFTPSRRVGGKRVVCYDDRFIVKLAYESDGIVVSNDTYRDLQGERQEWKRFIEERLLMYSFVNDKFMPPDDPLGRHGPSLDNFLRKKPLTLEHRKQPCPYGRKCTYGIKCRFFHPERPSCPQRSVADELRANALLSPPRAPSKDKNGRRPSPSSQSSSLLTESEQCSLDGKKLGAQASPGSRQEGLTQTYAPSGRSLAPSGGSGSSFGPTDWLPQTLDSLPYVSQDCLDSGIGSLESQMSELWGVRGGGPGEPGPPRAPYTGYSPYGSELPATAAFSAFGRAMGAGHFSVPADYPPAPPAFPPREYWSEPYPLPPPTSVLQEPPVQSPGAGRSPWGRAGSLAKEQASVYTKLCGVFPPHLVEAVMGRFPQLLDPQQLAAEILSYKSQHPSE
- assaySummary: Inhibition of kinase-Regnase-1 binding by the compounds (AlphaScreen), TBK1
- measurementConditions: Table 12; 2.5 nM Regnase-1, 2.5 nM TBK1; AlphaScreen; read-out: 50% inhibition concentration, binding between Regnase-1 and TBK1, FL_Reg1
Residues, ends and D or L forms follow the SMILES beside them.
What pIC50 was measured for each of the following?
Numbers only, as −log10 of the molar value.

Illustrative cases are given below, each with its answer.
[
  {
    "compound": "CC[C@H](C)[C@@H]1NC(=O)[C@H](CCCNC(=N)N)NC(=O)[C@H](Cc2ccc(O)cc2)NC(=O)[C@H](Cc2c[nH]c3ccccc23)NC(=O)[C@H](C)NC(=O)[C@H](CO)NC(=O)[C@H](C)NC(=O)[C@H](Cc2c[nH]cn2)NC(=O)[C@H](CCCCN)NC(=O)[C@@H](C)N(C)C(=O)C[C@@H](C(=O)N2CCCC2)NC(=O)[C@H](Cc2c[nH]c3ccccc23)NC1=O [PP3] (HELM PEPTIDE1{[C[C@H](C(=O)[*:2])N(C)[*:1]].K.H.A.S.A.W.Y.R.I.W.D.[C1CCN([*:1])C1]}$PEPTIDE1,PEPTIDE1,1:R1-12:R3$$$V2.0)",
    "pIC50": 5.51
  },
  {
    "compound": "CC[C@H](C)[C@@H]1NC(=O)[C@H](Cc2ccc(O)cc2)NC(=O)[C@H](C)N(C)C(=O)C[C@@H](C(=O)N2CCCC2)NC(=O)[C@H](CC(C)C)NC(=O)[C@H](CC(=O)O)NC(=O)CNC(=O)[C@H](Cc2ccccc2)NC(=O)[C@H](Cc2ccccc2)NC(=O)[C@H](CC(=O)O)NC(=O)[C@H](Cc2c[nH]c3ccccc23)NC1=O [PP4] (HELM PEPTIDE1{[meA].Y.I.W.D.F.F.G.D.L.D.[C1CCN([*:1])C1]}$PEPTIDE1,PEPTIDE1,1:R1-11:R3$$$V2.0)",
    "pIC50": 4.61
  }
]

Continue with the next compound.
Measured pIC50 (binding between TBK1 and full-length Regnase-1 (FL_Reg1) (Homo sapiens, UniProt Q5D1E8)), entry CC[C@H](C)[C@@H]1NC(=O)[C@H](CC(N)=O)NC(=O)[C@H](Cc2ccc(O)cc2)NC(=O)[C@H](Cc2c[nH]c3ccccc23)NC(=O)[C@H](C)NC(=O)[C@H](CC(N)=O)NC(=O)[C@H](CO)NC(=O)[C@H](Cc2c[nH]cn2)NC(=O)[C@H](C)N(C)C(=O)C[C@@H](C(=O)N2CCCC2)NC(=O)[C@H](Cc2c[nH]c3ccccc23)NC1=O [PP5] (HELM PEPTIDE1{[meA].H.S.N.A.W.Y.N.I.W.D.[C1CCN([*:1])C1]}$PEPTIDE1,PEPTIDE1,1:R1-11:R3$$$V2.0) : 4.94
